Reference for the values: patent US20260258115A1

SYSTEM_NAME: RSV F on RSV-A2 virus (Respiratory syncytial virus (RSV-A2))
ASSAY_TEXT: cell-based or functional assay
ASSAY_METRIC: Neutralization IC50 (RSV subtype A)

Consider the worked cases shown below.
BINDER	MEASUREMENT
ADI-41275 (antibody, V domains shown) VH: EVQLVESGGGLVKPGGSLRLSCAASGFMFSTYSMNWVRQAPGKGLEWVSFITGSSSDKYYAHSVKGRFTISRDNAKRTLYLQLNSLRAEDTAVYYCARFRGLYCDGDCSSRGNTYYNYYGMDVWGQGTTVTVSS VL: EIVMTQSPLSLSVIPGEPASISCRSSKSLLHSNGYTYLDWYLQKPGQSPQLLIHLGSNRASGVPDRFSGSGSGTDFTLKISRVEAEDVGVFYCMQALQAPPTFGPGTKVEIK	> 25 µg/mL
ADI-41261 (antibody, V domains shown) VH: QVQLVQSGAEVKKPGSSVKVSCKASGGTFSSYGISWVRQAPGQGLEWMGGIIPMFGAANYAQKFQGRVTITAETSTSTAFMELSSLRSDDTAVYYCARIRWVPNWGGTATSFYNGMDVWGQGTTVTVSS VL: EIVMTQSPGTLSLSPGERATLSCRASQSVSSSYLAWYQQKPGQAPRLLIYGASSRATGIPDRFSGSGSGTDFTLTISRLEPEDFAVYYCQHYGSSLFTFGPGTKVDIK	> 25 µg/mL
ADI-41305 (antibody, V domains shown) VH: QVTLKESGPGLVKPSQTLSLTCTVSGGSISGGGYYWSWIRQLPGKGLQWIGCIYDSGTTYYNPSLKSLVTISIDTSKNQFSLKLSSVTAADTAVYYCARGGSLDDFWSATWYFALWGRGTLVTVSS VL: EIVLTQSPGTLSLSPGERATLSCRASQSVSSNYLAWYQQKPGQAPRLLIYGASSRATGIPDRFSGSGSGTDFTLTISRLEPEDFAFYYCQQYGRSPYTFGPGTKLEIK	> 25 µg/mL
ADI-41309 (antibody, V domains shown) VH: EVQLLESGPGLVKPSQTLSLTCTVSGGSISSGDYYWSWVRQPPGKGLEWIGNIYHSGSTYYKPSLKSRVSISLDTSKNQFSLKLSSVTAADTAIYYCARDGGENYVWGTFRFLDVWGQGTTVTVSS VL: DIRLTQSPGTLSLSPGERATLSCRASQSVSSSYLAWYQQKPGQAPRLLIYGVSSRATGIPDRFSGSGSGTDFTLTINRLEPEDFALYHCQQYGSSPHTFGQGTKVEIK	> 25 µg/mL

Moving on to the next binder.
Query string: Find the recorded Neutralization IC50 (RSV subtype A) belonging to ADI-41307 (antibody, V domains shown) VH: QVQLVESGGGLVKPGGSLRLSCAASGFPLSPYALNWVRQAPGKGLEWVSSITSSSAYIYYADSVKGRFTVSRDNPTNSLYLQMNSLRAEDTAVYYCARTIPQHYYDNNGDYYNYGMDVWGQGTTVTVSS VL: DIVLTQSPATLSVSPGQRITLSCRASQTVRSNLAWYQQKPGQPPRLLIYGASTRATGVPARFTGSGSGTEFTLTITSLQSDDFAVYYCHQYNDRPLTFGPGTKVEIK and report it.
Result string: > 25 µg/mL
